Target: T1, Bzz1-1, P38822
T1 sequence (P38822 478-572, looked up): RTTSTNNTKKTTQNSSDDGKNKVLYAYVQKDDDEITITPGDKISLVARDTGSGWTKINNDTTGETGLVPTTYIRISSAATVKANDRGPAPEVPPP
Assay: SPOT array
Settings: median of control spots 4446
experimental_readout: SPOT intensity

Some solved entries appear below for comparison.
>  <binder>
KTRLRPAFIQQLWSS

>  <SPOT intensity>
0

$$$$
>  <binder>
AAHKTKPSIPPKKVE

>  <SPOT intensity>
0

$$$$
>  <binder>
KRRTSLFPWLHKPGI

>  <SPOT intensity>
0

$$$$
>  <binder>
YHSRRHPLALGFKYV

>  <SPOT intensity>
0

$$$$

Task: // query SPOT intensity value for entry TPEIPPPLPPKIMVH
Result: 0

Task: // query SPOT intensity value for entry GDHPKGPPPPPPPDE
Result: 1

Task: // query SPOT intensity value for entry HRRRRVFSIPSLKSI
Result: 3
